experimental-target: human P2X4 (Homo sapiens, UniProt Q99571)
Sequence (Q99571 whole entry): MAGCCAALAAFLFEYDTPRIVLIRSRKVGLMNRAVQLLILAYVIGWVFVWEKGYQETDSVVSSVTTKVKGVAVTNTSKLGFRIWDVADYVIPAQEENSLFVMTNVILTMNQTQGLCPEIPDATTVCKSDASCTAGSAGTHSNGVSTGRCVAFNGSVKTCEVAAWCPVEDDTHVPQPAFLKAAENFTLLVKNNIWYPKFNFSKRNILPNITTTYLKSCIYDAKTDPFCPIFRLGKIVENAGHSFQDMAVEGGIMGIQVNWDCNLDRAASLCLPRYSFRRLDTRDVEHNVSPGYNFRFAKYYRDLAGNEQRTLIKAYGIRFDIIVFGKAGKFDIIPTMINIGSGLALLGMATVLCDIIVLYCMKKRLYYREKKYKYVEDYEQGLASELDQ
protocol: Human P2X4 HEK Cell FLIPR Assay
Format: cell-based
particulars: HEK293, HEK293 cells, agonist Bz-ATP at EC80; percentage of maximal inhibition; read-out: Human P2X4 HEK Cells (FLIPR Assay) avg Efficacy [%]
value-kind: Emax (%)

[[record]]
molecule = "NS(=O)(=O)c1cc(NC(=O)Cc2ccccc2Cl)ccc1-n1cc2ncccc2n1 [Example 255]"
numeric_readout = 81

[[record]]
molecule = "NS(=O)(=O)c1cc(NC(=O)Cc2ccccc2Br)ccc1-c1cncc(C(F)(F)F)c1 [Example 449]"
numeric_readout = 73

[[record]]
molecule = "CC(C)Oc1cnn(-c2ccc(NC(=O)Cc3ccccc3Cl)cc2S(N)(=O)=O)c1 [Example 27]"
numeric_readout = 74

[[record]]
molecule = "Cn1cc(-c2ccc(NC(=O)Cc3ccccc3Cl)cc2S(N)(=O)=O)c(C(F)(F)F)n1 [Example 355]"
numeric_readout = 76

[[record]]
molecule = "N#Cc1cnn(-c2ccc(NC(=O)Cc3cccc(Cl)c3)cc2S(N)(=O)=O)c1 [Example 191]"
numeric_readout = 76

[[record]]
molecule = "NS(=O)(=O)c1cc(NC(=O)Cc2ccccc2OC(F)F)ccc1-n1cc(F)cn1 [Example 157]"
numeric_readout = 90

[[record]]
molecule = "NS(=O)(=O)c1cc(NC(=O)Cc2cc(F)ccc2Cl)ccc1-n1cc(Cl)cn1 [Example 98]"
numeric_readout = 77

[[record]]
molecule = "NS(=O)(=O)c1cc(NC(=O)Cc2ccccc2F)ccc1-n1cc(NCC(F)F)cn1 [Example 514]"
numeric_readout = 102


Reference for the values: patent US11524938B2
